SYSTEM_NAME: Glucagon-like peptide 1 receptor (Rattus norvegicus) (UniProt P32301)
Sequence (P32301 whole entry): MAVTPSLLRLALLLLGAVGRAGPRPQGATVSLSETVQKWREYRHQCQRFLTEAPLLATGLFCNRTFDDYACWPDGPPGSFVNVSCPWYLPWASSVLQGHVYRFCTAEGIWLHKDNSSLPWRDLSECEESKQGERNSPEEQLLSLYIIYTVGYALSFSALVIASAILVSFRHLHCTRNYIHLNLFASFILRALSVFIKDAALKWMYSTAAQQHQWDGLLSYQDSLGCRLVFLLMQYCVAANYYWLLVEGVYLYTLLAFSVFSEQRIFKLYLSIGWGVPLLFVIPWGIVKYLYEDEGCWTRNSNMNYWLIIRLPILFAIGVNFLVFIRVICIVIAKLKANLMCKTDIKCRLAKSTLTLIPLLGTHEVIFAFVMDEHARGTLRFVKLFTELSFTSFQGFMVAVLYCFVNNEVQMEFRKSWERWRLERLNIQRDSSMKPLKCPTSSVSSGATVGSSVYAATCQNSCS
EXPERIMENT_NOTES: Inhibition of [125I]Exendin (9-39) binding to rat GLP1R expressed in HEK293 cells
Type: cell-based
Set-up: concentration or dose not given beside the values
APPLIED_CONDITIONS: concentration not given here
Attribute: inhibition
State the answer as a number, implicitly in %.

Exercise: Answer with the recorded inhibition for the compound listed here: COc1cc([C@H]2[C@](NC(=O)c3ccc(NC(=O)OC(C)(C)C)cc3)(C(=O)O)[C@@H](c3ccc(OC(=O)Cc4ccccc4)c(OC)c3)[C@]2(NC(=O)c2ccc(NC(=O)OC(C)(C)C)cc2)C(=O)O)ccc1OC(=O)Cc1ccccc1
Key: 4.8

---
Exercise: Answer with the recorded inhibition for the compound listed here: CC(C)(C)OC(=O)Nc1ccc(C(=O)N[C@]2(C(=O)O)[C@H](c3ccc(OC(=O)c4ccccc4)cc3)[C@@](NC(=O)c3ccc(NC(=O)OC(C)(C)C)cc3)(C(=O)O)[C@@H]2c2ccc(OC(=O)c3ccccc3)cc2)cc1
Key: 6.3

Exercise: Answer with the recorded inhibition for the compound listed here: COc1cc([C@H]2[C@](NC(=O)c3ccc(NC(=O)C4CCC4)cc3)(C(=O)O)[C@@H](c3ccc(OC(=O)c4cccs4)c(OC)c3)[C@]2(NC(=O)c2ccc(NC(=O)C3CCC3)cc2)C(=O)O)ccc1OC(=O)c1cccs1
Key: 45.6

Exercise: Answer with the recorded inhibition for the compound listed here: COc1cc([C@H]2[C@](NC(=O)c3ccc(NC(=O)COCc4ccccc4)cc3)(C(=O)O)[C@@H](c3ccc(OC(=O)c4cccs4)c(OC)c3)[C@]2(NC(=O)c2ccc(NC(=O)COCc3ccccc3)cc2)C(=O)O)ccc1OC(=O)c1cccs1
Key: 45.9

* * *

SYSTEM_NAME: Glucagon-like peptide 1 receptor (Rattus norvegicus)
EXPERIMENT_NOTES: Agonist activity at rat GLP1R expressed in HEK293 cells assessed as stimulation of cAMP levels incubated for 6 hrs by multiple response element/cAMP response element (MRE/CRE)-driven reporter gene assay relative to 10 nM GLP1
Assay type: functional, cell-based
Attribute: Efficacy
State the answer as a number, implicitly in %.

Exercise: Answer with the recorded Efficacy for the molecule listed here: COc1cc([C@H]2[C@](NC(=O)c3ccc(NC(=O)C(C)(C)C)cc3)(C(=O)O)[C@@H](c3ccc(OC(=O)c4cccs4)c(OC)c3)[C@]2(NC(=O)c2ccc(NC(=O)C(C)(C)C)cc2)C(=O)O)ccc1OC(=O)c1cccs1
Key: 60.8

Exercise: Answer with the recorded Efficacy for the molecule listed here: CCC(=O)Oc1ccc([C@H]2[C@](NC(=O)c3ccc(NC(=O)OC(C)(C)C)cc3)(C(=O)O)[C@@H](c3ccc(OC(=O)CC)c(OC)c3)[C@]2(NC(=O)c2ccc(NC(=O)OC(C)(C)C)cc2)C(=O)O)cc1OC
Key: 91

---
Exercise: Answer with the recorded Efficacy for the molecule listed here: COc1cc([C@H]2[C@](NC(=O)c3ccc(NC(=O)OC(C)(C)C)cc3)(C(=O)O)[C@H](c3ccc(OC(=O)c4cccs4)c(OC)c3)[C@]2(NC(=O)c2ccc(NC(=O)OC(C)(C)C)cc2)C(=O)O)ccc1OC(=O)c1cccs1
Key: 68.2

* * *

SYSTEM_NAME: Glucagon-like peptide 1 receptor (Rattus norvegicus) (UniProt P32301)
EXPERIMENT_NOTES: Agonist activity at rat GLP1R expressed in HEK293 cells assessed as stimulation of cAMP levels incubated for 6 hrs by multiple response element/cAMP response element (MRE/CRE)-driven reporter gene assay relative to 10 nM GLP1
Type: functional, cell-based
Attribute: Efficacy

Exercise: Answer with the recorded Efficacy for the compound listed here: COc1cc([C@H]2[C@](NC(=O)c3ccc(NC(=O)OC(C)(C)C)cc3)(C(=O)O)[C@@H](c3ccc(OC(=O)c4cccs4)c(OC)c3)[C@@]2(NC(=O)c2ccc(NC(=O)OC(C)(C)C)cc2)C(=O)O)ccc1OC(=O)c1cccs1
Key: < 15%

Exercise: Answer with the recorded Efficacy for the compound listed here: COc1cccc([C@H]2[C@](NC(=O)c3ccc(NC(=O)OC(C)(C)C)cc3)(C(=O)O)[C@@H](c3cccc(OC)c3)[C@]2(NC(=O)c2ccc(NC(=O)OC(C)(C)C)cc2)C(=O)O)c1
Key: < 15%

Exercise: Answer with the recorded Efficacy for the compound listed here: COc1cc([C@H]2[C@](NC(=O)c3ccc(NC(=O)OC(C)(C)C)cc3)(C(=O)O)[C@@H](c3ccc(OCc4ccc(F)cc4)c(OC)c3)[C@]2(NC(=O)c2ccc(NC(=O)OC(C)(C)C)cc2)C(=O)O)ccc1OCc1ccc(F)cc1
Key: < 15%

Exercise: Answer with the recorded Efficacy for the compound listed here: CC(C)(C)OC(=O)Nc1ccc(C(=O)N[C@]2(C(=O)O)[C@H](c3ccccc3)[C@@](NC(=O)c3ccc(NC(=O)OC(C)(C)C)cc3)(C(=O)O)[C@@H]2c2ccccc2)cc1
Key: < 15%

Exercise: Answer with the recorded Efficacy for the compound listed here: COc1cc([C@H]2[C@](NC(=O)c3ccc(NC(=O)OC(C)(C)C)cc3)(C(=O)O)[C@@H](c3ccc(NC(C)=O)c(OC)c3)[C@]2(NC(=O)c2ccc(NC(=O)OC(C)(C)C)cc2)C(=O)O)ccc1NC(C)=O
Key: < 15%

# input for lookup
Exercise: Answer with the recorded Efficacy for the compound listed here: COc1cc([C@H]2[C@](NC(=O)c3ccc(NC(=O)OC(C)(C)C)cc3)(C(=O)O)[C@@H](c3ccc(OC(=O)c4ccco4)c(OC)c3)[C@]2(NC(=O)c2ccc(NC(=O)OC(C)(C)C)cc2)C(=O)O)ccc1OC(=O)c1ccco1
Key: < 15%
